# credit: patent US12503475B2

Exercise: for every item that follows, state its recorded EC50.
# SYSTEM: human orexin type 2 receptor (hOX2R) (Homo sapiens)
# Construct: expressed in transfected cells
# EXPERIMENT_NOTES: Measurement of orexin type 2 receptor agonist activity (FLIPR calcium fluorescence)
# Format: cell-based
# REPORTED_CONDITIONS: CHO cells expressing hOX2R, FLIPR calcium fluorescence; read-out: hOx2 pEC50 (converted)

Observe how each entry below is paired with its result.
COMPOUND: CC(C)C(=O)N1CC2(CC2)C(NS(=O)(=O)CF)C1Cc1cccc(-c2ccccc2)c1 (racemic)
EC50: 1 to 10 nM

COMPOUND: CS(=O)(=O)N[C@@H]1[C@H](Cc2cccc(-c3ccccc3)c2F)N(C(=O)[C@H](O)C(F)(F)F)CC12CC2
EC50: 1 to 10 nM

COMPOUND: CN(CC1CC1)C(=O)N1CC2(CC2)[C@H](NS(C)(=O)=O)[C@@H]1Cc1cccc(-c2ccccc2)c1F
EC50: 1 to 10 nM

COMPOUND: C[C@@H](F)C(=O)N1CC2(CC2)[C@H](NS(=O)(=O)C(F)F)[C@@H]1Cc1cc(F)cc(-c2cc(F)cc(F)c2)c1F
EC50: 0.0794 to 1 nM

COMPOUND: CCNC(=O)N1CC2(CC2)[C@H](NS(=O)(=O)N(C)C)[C@@H]1Cc1cccc(-c2ccccc2)c1F
EC50: 0.0794 to 1 nM

Batch of 3 compounds: report EC50 for each.
1. CCS(=O)(=O)N[C@@H]1[C@H](Cc2cccc(-c3cccc(F)c3)c2F)N(C(=O)[C@H]2CCO2)CC12CC2
2. CS(=O)(=O)N[C@@H]1[C@H](Cc2cccc(-c3ccccc3)c2F)N(C(=O)NCCF)CC12CC2
3. CC(C)S(=O)(=O)N[C@@H]1[C@H](Cc2cccc(-c3ccccc3)c2F)N(C(=O)[C@H]2CCO2)CC12CC2

OUTPUT:
0.0794 to 1 nM
1 to 10 nM
1 to 10 nM

----------
# SYSTEM: human orexin type 2 receptor (hOX2R) (Homo sapiens)
# Construct: expressed in transfected cells
# Sequence (O43614 1-444): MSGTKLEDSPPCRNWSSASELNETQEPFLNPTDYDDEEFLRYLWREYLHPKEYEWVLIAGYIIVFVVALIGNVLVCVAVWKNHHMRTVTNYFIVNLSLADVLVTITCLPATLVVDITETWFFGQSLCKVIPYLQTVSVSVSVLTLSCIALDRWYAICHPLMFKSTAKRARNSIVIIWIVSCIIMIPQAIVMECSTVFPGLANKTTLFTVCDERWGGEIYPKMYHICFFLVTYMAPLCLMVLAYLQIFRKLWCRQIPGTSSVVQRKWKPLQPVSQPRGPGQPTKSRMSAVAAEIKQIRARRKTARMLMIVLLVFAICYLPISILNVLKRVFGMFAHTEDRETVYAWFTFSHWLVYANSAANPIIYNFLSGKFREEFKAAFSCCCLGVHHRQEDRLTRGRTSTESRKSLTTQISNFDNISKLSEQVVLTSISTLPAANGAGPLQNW
# EXPERIMENT_NOTES: Measurement of orexin type 2 receptor agonist activity (FLIPR calcium fluorescence)
# Type: cell-based
# REPORTED_CONDITIONS: CHO cells expressing hOX2R, FLIPR calcium fluorescence; read-out: hOx2 pEC50 (converted)
Exercise: for every item that follows, state its recorded EC50.

Batch of 6 compounds: report EC50 for each.
1. CS(=O)(=O)N[C@@H]1[C@H](Cc2cccc(-c3ccccc3)c2F)N(C(=O)N2CC[C@H]2CF)CC12CC2 [Compound 80]
2. CS(=O)(=O)N[C@@H]1[C@H](Cc2cccc(-c3ccccc3)c2F)N(C(=O)N2CC(F)(F)C2)CC12CC2 [Compound 87]
3. O=C(NCC(F)F)N1CC2(CC2)[C@H](NS(=O)(=O)CF)[C@@H]1Cc1cc(F)cc(-c2ccccc2)c1F [Compound 191]
4. C[C@H](CF)NC(=O)N1CC2(CC2)[C@H](NS(C)(=O)=O)[C@@H]1Cc1cccc(-c2ccccc2)c1F [Compound 101]
5. CCCNC(=O)N1CC2(CC2)[C@H](NS(C)(=O)=O)[C@@H]1Cc1cccc(-c2ccccc2)c1OC [Compound 342]
6. O=C([C@@H](O)C1CC1)N1CC2(CC2)[C@H](NS(=O)(=O)C(F)F)[C@@H]1Cc1cccc(-c2cc(F)cc(F)c2)c1F [Compound 377]

OUTPUT:
0.0794 to 1 nM
10 to 100 nM
1 to 10 nM
0.0794 to 1 nM
10 to 100 nM
0.0794 to 1 nM
